# test_system: Tyrosyl-tRNA synthetase, putative (Trypanosoma cruzi (strain CL Brener))
# Sequence (whole entry): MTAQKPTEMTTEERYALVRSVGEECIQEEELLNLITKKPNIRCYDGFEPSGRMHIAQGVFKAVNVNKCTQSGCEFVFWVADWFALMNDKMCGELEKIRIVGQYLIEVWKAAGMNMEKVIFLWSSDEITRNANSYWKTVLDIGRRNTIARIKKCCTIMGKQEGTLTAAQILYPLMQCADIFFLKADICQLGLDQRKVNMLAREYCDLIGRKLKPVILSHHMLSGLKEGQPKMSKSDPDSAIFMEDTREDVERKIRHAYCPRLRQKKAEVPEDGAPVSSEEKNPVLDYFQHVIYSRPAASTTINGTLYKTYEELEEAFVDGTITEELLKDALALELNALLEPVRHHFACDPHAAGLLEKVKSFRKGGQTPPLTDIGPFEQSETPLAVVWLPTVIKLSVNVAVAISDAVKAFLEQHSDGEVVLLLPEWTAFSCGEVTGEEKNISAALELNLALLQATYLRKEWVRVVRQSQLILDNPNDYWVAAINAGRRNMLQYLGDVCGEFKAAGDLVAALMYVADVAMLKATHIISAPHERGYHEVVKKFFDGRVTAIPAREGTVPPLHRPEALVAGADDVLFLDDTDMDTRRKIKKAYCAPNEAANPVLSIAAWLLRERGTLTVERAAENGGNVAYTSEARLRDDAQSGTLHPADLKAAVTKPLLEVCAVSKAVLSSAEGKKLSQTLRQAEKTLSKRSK
# assay_summary: Trypanosoma cruzi tyrosyl tRNA synthetase (TcYRS) _High Tyrosine SOP; further: in the data most compounds retested in dose-response had high values
# Format: functional
# Set-up: scale not given: direction of the effect not stated beside the values
# experimental_parameters: 30 µM
readout_type: Percent Effect (%)
Hi! Could you send only the number? It should be in %, unit omitted.

Solved cases below.
- Cn1cccc1C(=O)N1CCn2cc(CNC(=O)CC3CC3)nc2C1: 8.51
- c1ccc(CCN2CCN(c3ccc4nncn4n3)CC2)nc1: 2.91
- CCN(Cc1nc2c(cnn2C)c(=O)[nH]1)c1cccc(F)c1: 1.04

Query :: Tyrosyl-tRNA synthetase, putative (Trypanosoma cruzi (strain CL Brener)) / Percent Effect / Cc1ccc(N2CCCC(NCc3ccc(C)o3)C2)nn1 (stereo unspecified) : value?
Result :: 5.21

Query :: Tyrosyl-tRNA synthetase, putative (Trypanosoma cruzi (strain CL Brener)) / Percent Effect / Cc1nn(C)c(N2CCOCC2)c1CNC(C)c1cccnc1 (stereo unspecified) : value?
Result :: 3.16

Query :: Tyrosyl-tRNA synthetase, putative (Trypanosoma cruzi (strain CL Brener)) / Percent Effect / Cc1ccc(CN2CCC(F)(F)C3(CCN(c4cnccn4)C3)C2)o1 (stereo unspecified) : value?
Result :: 5.94

----------
# Test system: Trypanosoma cruzi
# assay_summary: Trypanosoma cruzi phosphomannomutase and mannose-1-phosphate guanylyltransferase assay
# Assay type: functional
# Parameters: scale not given: direction of the effect not stated beside the values
# experimental_parameters: 10 µM
readout_type: Percent Effect (%)
Hi! Could you send only the number? It should be in %, unit omitted.

- Cn1ccnc1-c1ccccc1C(=O)N1CCc2c(nc(N)[nH]c2=O)C1: -2.06
- Cn1nc2c(cc1=O)CN(Cc1coc(-c3cccs3)n1)CC2: 4.81
- Cc1cccc(CNC(CN2CCN(C)CC2)c2ccccc2)c1 (stereo unspecified): 3.23
- CNS(=O)(=O)c1cccc(CNc2ccc(C(F)(F)F)nn2)c1: -3.87
- CN(C)C(=O)N1CCN(CCn2nc3ccccn3c2=O)CC1: -6.13
- CSCCNC(=O)c1ccc(OC2CCN(CC(C)(C)C)CC2)c(Cl)c1: 7.53
- CN1CCc2cc(C(CNS(=O)(=O)c3cccs3)N3CCCC3)ccc21 (stereo unspecified): -5.42
- CN1CCN(Cc2cscn2)CC(C(=O)N(C)C)C1 (stereo unspecified): 5.91
- O=C(c1ccccc1N1CCOCC1)N1CCCC(n2cccn2)C1 (stereo unspecified): -1.98
- NC(=O)C(CNC(=O)COCC(F)(F)F)Cc1ccc(F)cc1 (stereo unspecified): 0.292

Now examine the next entry.
Query :: Entry "CN(C)Cc1nnc(C2CCN(C(=O)CCc3cccs3)CC2)n1C" has what Percent Effect?
Result :: 4.83
